Entries annotated with measured DC50
Biological target: EGFR L858R/T790M/C797S (BaF3-LTC cells) (Homo sapiens, UniProt P00533, C797S/L858R/T790M)
Construct: expressed in transfected cells; host or cells: BaF3
Sequence (P00533 25-1210 T790M/C797S/L858R): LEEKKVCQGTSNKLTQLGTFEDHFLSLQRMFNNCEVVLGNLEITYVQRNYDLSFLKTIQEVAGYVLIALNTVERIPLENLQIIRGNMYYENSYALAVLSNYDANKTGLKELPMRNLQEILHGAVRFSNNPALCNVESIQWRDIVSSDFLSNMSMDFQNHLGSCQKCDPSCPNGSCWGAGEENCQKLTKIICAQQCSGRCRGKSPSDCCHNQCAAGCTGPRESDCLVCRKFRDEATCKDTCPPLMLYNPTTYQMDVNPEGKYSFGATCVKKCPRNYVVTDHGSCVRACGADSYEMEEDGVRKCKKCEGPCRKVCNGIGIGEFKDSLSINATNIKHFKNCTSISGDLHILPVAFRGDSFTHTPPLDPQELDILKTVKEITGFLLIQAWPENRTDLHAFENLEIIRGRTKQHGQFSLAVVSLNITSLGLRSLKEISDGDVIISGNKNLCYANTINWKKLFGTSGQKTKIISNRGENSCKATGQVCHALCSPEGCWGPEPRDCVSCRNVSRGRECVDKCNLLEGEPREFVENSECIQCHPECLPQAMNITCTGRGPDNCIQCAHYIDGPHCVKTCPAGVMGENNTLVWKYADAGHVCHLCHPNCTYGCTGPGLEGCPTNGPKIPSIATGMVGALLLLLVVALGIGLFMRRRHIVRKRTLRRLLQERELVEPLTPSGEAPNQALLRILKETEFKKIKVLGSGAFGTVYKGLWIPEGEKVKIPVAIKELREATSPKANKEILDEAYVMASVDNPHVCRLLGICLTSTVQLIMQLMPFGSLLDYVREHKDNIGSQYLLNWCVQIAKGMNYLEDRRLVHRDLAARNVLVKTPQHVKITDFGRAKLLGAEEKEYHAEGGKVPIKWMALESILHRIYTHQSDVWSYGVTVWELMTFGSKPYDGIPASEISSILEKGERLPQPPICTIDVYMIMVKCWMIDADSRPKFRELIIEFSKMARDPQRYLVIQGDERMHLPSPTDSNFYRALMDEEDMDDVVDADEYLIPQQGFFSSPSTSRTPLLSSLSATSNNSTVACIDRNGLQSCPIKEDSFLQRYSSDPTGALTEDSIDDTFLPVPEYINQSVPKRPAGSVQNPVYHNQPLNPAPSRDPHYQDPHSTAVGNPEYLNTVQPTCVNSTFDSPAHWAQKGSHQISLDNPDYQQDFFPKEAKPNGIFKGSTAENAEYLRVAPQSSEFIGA
Assay: EGFR degradation HTRF assay, BaF3-LTC cells
Format: cell-based
Details: BaF3-LTC cells; EGFR degradation, IC50 (DC50) from curve fit; read-out: DC50(nM) BaF3-LTC
Protocol: BaF3 WT(wild type), BaF3-LTC(L858R/T790M/C797S) and BaF3-DTC(Del19/T790M/C797S) cells are treated with compounds diluted in 0.2% DMSO cell culture medium and incubate for 16h, 37° C., 5% CO2, H1975-#36, H1975-#28, H1975-#23 and HCC827 cells are treated with compounds diluted in 0.2% DMSO cell culture medium on day 2, incubate for 16h, 37° C., 5% CO2.the final concentriation of compounds in all assay is start with 10 uM, 5-fold dilution, total 8 doses were included. […]
property.name: DC50 (nM)

| compound | reading |
| --- | --- |
| CCOc1cc(N2CCC(N3CCN(CC4CCN(c5cc(F)cc6c5oc(=O)n6C5CCC(=O)NC5=O)CC4)CC3)CC2)c(CC)cc1Nc1ncc(Br)c(Nc2ccc3nc(CC)ccc3c2P(C)(C)=O)n1 (stereo not shown) | 15 |
| CCOc1cc(N2CCC(N3CCN(CCc4ccc5c(c4)oc(=O)n5C4CCC(=O)NC4=O)CC3)CC2)c(C)cc1Nc1ncc(Br)c(Nc2ccc3nc(CC)ccc3c2P(C)(C)=O)n1 (stereo not shown) | 4.35 |
| CCc1ccc2c(P(C)(C)=O)c(Nc3nc(Nc4cc(CC)c(N5CCC(N6CCN(C(=O)[C@@H]7CCN(c8cc(F)c([C@H]9CCC(=O)NC9=O)c(F)c8)C7)CC6)CC5)cc4OC)ncc3Br)cc(F)c2n1 | 5.05 |
| CCc1cc(Nc2ncc(Br)c(Nc3ccc4ncncc4c3P(C)(C)=O)n2)c(OC)cc1N1CCC(N2CCN(C(=O)[C@@H]3CCN(c4cc(F)c([C@H]5CCC(=O)NC5=O)c(F)c4)C3)CC2)CC1 | 2.32 |

====

System: EGFR Del19/T790M/C797S (BaF3-DTC cells)
Assay: EGFR degradation HTRF assay, BaF3-DTC cells
Type: cell-based
Conditions: 16h treatment, maximum percentage of degradation
Entries annotated with measured DTC Dmax (%)
property.name: DTC Dmax (%)

| molecule | property.name | reading |
| --- | --- | --- |
| CCc1cc(Nc2ncc(Br)c(Nc3ccc4nc(C)ccc4c3P(C)(C)=O)n2)c(OC)cc1N1CCC(N2CCN(C(=O)C34CCC(Nc5cc(F)c(C6CCC(=O)NC6=O)c(F)c5)(CC3)C4)CC2)CC1 (stereo not shown) [Example 699] | DTC Dmax (%) | 85.08 |
| CCc1cc(Nc2ncc(Br)c(Nc3ccc4nccnc4c3P(C)(C)=O)n2)c(OC)cc1N1CCC(N2CCN(C(=O)[C@H]3C[C@H](Nc4ccc(C5CCC(=O)NC5=O)cc4)C3)CC2)CC1 (stereo partly shown) [Example 298] | DTC Dmax (%) | 86.58 |
| CCc1cc(Nc2ncc(Br)c(Nc3ccc4nccnc4c3P(C)(C)=O)n2)c(OC)cc1N1CCC(N2CCN(C[C@H]3C[C@H](c4ccc(NC5CCC(=O)NC5=O)cc4)C3)CC2)CC1 (stereo partly shown) [Example 284] | DTC Dmax (%) | 77.49 |
| CCc1cc(Nc2ncc(Br)c(Nc3ccc4nccnc4c3P(C)(C)=O)n2)c(OC)cc1N1CCC(N2CCN(C[C@H]3CCN(c4ccc(C5CCC(=O)NC5=O)cc4)C3)CC2)CC1 (stereo partly shown) [Example 220] | DTC Dmax (%) | 86 |
| COc1cc(N2CCC(N3C[C@@H]4C[C@H]3CN4CCC3CCN(c4cc(F)c(C5CCC(=O)NC5=O)c(F)c4)CC3)CC2)c(C)cc1Nc1ncc(Br)c(Nc2ccc3nccnc3c2P(C)(C)=O)n1 (stereo partly shown) [Example 268] | DTC Dmax (%) | 93.75 |
| CCc1cc(Nc2ncc(Br)c(Nc3ccc4nc(C)ccc4c3P(C)(C)=O)n2)c(OC)cc1N1CCC(N2CCN(CCN(C)c3cc(F)c(C4CCC(=O)NC4=O)c(F)c3)CC2)CC1 (stereo not shown) [Example 433] | DTC Dmax (%) | 93.56 |
| CCc1cc(Nc2ncc(Br)c(Nc3ccc4nccnc4c3P(C)(C)=O)n2)c(OC)cc1N1CCC(N2CCN(CCN(C)c3ccc4c(c3)C(=O)N(C3CCC(=O)NC3=O)C4)CC2)CC1 (stereo not shown) [Example 249] | DTC Dmax (%) | 90.4 |
| COc1cc(N2CCC(N3C[C@H]4C[C@@H]3CN4CCC3CCN(c4cc(F)c(C5CCC(=O)NC5=O)c(F)c4)CC3)CC2)c(C)cc1Nc1ncc(Br)c(Nc2ccc3nccnc3c2P(C)(C)=O)n1 (stereo partly shown) [Example 267] | DTC Dmax (%) | 93.96 |
| CCc1cc(Nc2ncc(Br)c(Nc3ccc4nccnc4c3P(C)(C)=O)n2)c(OC)cc1N1CCC(N2CCN(C(=O)[C@@H]3CCN(c4ccc5c(c4)CN(C4CCC(=O)NC4=O)C5=O)C3)CC2)CC1 (stereo partly shown) [Example 241] | DTC Dmax (%) | 89.74 |
| CCc1cc(Nc2ncc(Br)c(Nc3ccc4nc(C)ccc4c3P(C)(C)=O)n2)c(OC)cc1N1CCC(N2CCCN(CCc3cc(F)c(C4CCC(=O)NC4=O)c(F)c3)CC2)CC1 (stereo not shown) [Example 713] | DTC Dmax (%) | 86.33 |

====

Target: EGFR L858R/T790M/C797S (BaF3-LTC cells) (Homo sapiens, UniProt P00533, C797S/L858R/T790M)
Construct: expressed in transfected cells; host or cells: BaF3
Assay: EGFR degradation HTRF assay, BaF3-LTC cells
Assay type: cell-based
Details: BaF3-LTC, 16h treatment; read-out: LTC DC50
I'd appreciate it if you marked entries condition met when DC50 is lower than 30 nM and condition not met when it is not.

| molecule | category.label |
| --- | --- |
| CCc1cc(Nc2ncc(Br)c(Nc3ccc4c(=O)n(C)ncc4c3P(C)(C)=O)n2)c(OC)cc1N1CCC(N2CCN(CCc3cc(F)c(C4CCC(=O)NC4=O)c(F)c3)CC2)CC1 (stereo not shown) | condition met |
| CCc1cc(Nc2ncc(Br)c(Nc3ccc4nc(C)ccc4c3P(C)(C)=O)n2)c(OC)cc1N1CCC(N2CCN(CCN(C)c3cc(F)c(C4CCC(=O)NC4=O)c(F)c3)CC2)CC1 (stereo not shown) | condition met |
| CCc1cc(Nc2ncc(Br)c(Nc3ccc4nccnc4c3P(C)(C)=O)n2)c(OC)cc1N1CCC(N2CCN(CC3CN(c4ccc5c(c4)CN(C4CCC(=O)NC4=O)C5=O)C3)CC2)CC1 (stereo not shown) | condition met |
| CCc1cc(Nc2ncc(Br)c(Nc3ccc4nc(C)ccc4c3P(C)(C)=O)n2)c(OC)cc1N1CCC(N2CCN([C@H]3C[C@@H](c4cc(F)c(C5CCC(=O)NC5=O)c(F)c4)C3)CC2)CC1 (stereo partly shown) | condition met |
| COc1cc(N2CCC(N3C[C@H]4C[C@@H]3CN4CCC3CCN(c4cc(F)c(C5CCC(=O)NC5=O)c(F)c4)CC3)CC2)c(C)cc1Nc1ncc(Br)c(Nc2ccc3nccnc3c2P(C)(C)=O)n1 (stereo partly shown) | condition not met |
| CCc1cc(Nc2ncc(Br)c(Nc3ccc4nccnc4c3P(C)(C)=O)n2)c(OC)cc1N1CCN(C2CCN(C3CCC(c4ccc(C5CCC(=O)NC5=O)cc4)C3)CC2)CC1 (stereo not shown) | condition not met |
| COc1cc(N2CCC(N3C[C@@H]4C[C@H]3CN4CCC3CCN(c4cc(F)c(C5CCC(=O)NC5=O)c(F)c4)CC3)CC2)c(C)cc1Nc1ncc(Br)c(Nc2ccc3nccnc3c2P(C)(C)=O)n1 (stereo partly shown) | condition not met |
| CCc1cc(Nc2ncc(Br)c(Nc3ccc4nccnc4c3P(C)(C)=O)n2)c(OC)cc1N1CCC(N2CCN(CCN(C)c3ccc4c(c3)C(=O)N(C3CCC(=O)NC3=O)C4)CC2)CC1 (stereo not shown) | condition met |
| CCc1cc(Nc2ncc(Br)c(Nc3ccc4nccnc4c3P(C)(C)=O)n2)c(OC)cc1N1CCC(N2CCN(C(=O)C3CCN(c4ccc5c(c4)C(C)(C)C(=O)N5C4CCC(=O)NC4=O)CC3)CC2)CC1 (stereo not shown) | condition met |
| COc1cc(N2CCC(N3CCN(CCc4ccc(C5CCC(=O)NC5=O)c(F)c4)CC3)CC2)ccc1Nc1ncc(Br)c(Nc2ccc3nccnc3c2P(C)(C)=O)n1 (stereo not shown) | condition not met |
| CCc1cc(Nc2ncc(Br)c(Nc3ccc4nccnc4c3P(C)(C)=O)n2)c(OC)cc1N1CCC(N2CCN(CCc3cc(F)c(C4CCC(=O)NC4=O)c(Cl)c3)CC2)CC1 (stereo not shown) | condition not met |
| CCc1cc(Nc2ncc(Br)c(Nc3ccc4nc(C)ccc4c3P(C)(C)=O)n2)c(OC)cc1N1CCC(N2CCN(CCc3cc(F)c(C4CCC(=O)NC4=O)c(F)c3)C[C@@H]2C)CC1 (stereo partly shown) | condition met |
